Provenance of the data: patent US20140056903A1

Give measured t1/2 for each item. Keep answers brief.
target: T1, human GFRα3 expressed with a C-terminal myc-myc-hexahistidine tag (human, UniProt O60609 32-374, biotinylated (sites not given) in ELISA format 2 and in the Octet cross-competition; not in SPR); test: SPR, Ab captured, 25C
T1 construct: also called hGFRα3-mmh; hGFRα3-mmH
T1 sequence (O60609 other isoform, or with tags, fused parts or gaps limits assumed): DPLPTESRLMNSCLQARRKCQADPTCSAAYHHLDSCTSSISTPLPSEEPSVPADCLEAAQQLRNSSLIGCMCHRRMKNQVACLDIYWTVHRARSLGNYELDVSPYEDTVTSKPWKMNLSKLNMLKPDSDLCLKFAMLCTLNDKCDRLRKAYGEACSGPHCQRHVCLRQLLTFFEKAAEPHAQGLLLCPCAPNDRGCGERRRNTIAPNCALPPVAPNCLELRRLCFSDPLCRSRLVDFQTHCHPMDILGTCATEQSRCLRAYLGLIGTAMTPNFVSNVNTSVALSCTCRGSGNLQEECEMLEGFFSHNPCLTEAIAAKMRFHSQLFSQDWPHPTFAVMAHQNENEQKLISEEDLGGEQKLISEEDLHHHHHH
Give your result in min as a bare value.

Q: Query: t1/2; subject: H4H2350P (antibody, human IgG4, V domains shown, human IgG4 Fc (H4H)) VH: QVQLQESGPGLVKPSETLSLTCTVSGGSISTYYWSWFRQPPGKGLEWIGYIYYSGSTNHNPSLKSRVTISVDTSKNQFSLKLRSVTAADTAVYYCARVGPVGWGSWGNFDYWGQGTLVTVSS VL: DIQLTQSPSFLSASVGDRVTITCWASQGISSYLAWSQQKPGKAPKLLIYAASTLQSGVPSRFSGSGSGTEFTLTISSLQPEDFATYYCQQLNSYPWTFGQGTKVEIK
Ans: 56

Q: Query: t1/2; subject: H4H2295S (antibody, human IgG4, V domains shown, human IgG4 Fc (H4H)) VH: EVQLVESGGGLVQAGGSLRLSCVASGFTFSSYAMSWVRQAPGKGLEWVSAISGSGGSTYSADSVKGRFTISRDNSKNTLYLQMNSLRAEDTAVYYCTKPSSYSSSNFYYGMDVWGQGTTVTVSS VL: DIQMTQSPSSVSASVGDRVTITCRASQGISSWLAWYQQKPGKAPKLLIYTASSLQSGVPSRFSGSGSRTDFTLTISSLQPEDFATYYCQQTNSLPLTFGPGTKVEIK
Ans: 45

Q: Query: t1/2; subject: H4H2243N2 (antibody, human IgG4, V domains shown, human IgG4 Fc (H4H)) VH: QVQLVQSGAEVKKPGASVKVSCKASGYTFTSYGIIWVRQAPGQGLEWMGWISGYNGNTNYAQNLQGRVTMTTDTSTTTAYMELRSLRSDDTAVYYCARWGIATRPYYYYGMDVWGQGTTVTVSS VL: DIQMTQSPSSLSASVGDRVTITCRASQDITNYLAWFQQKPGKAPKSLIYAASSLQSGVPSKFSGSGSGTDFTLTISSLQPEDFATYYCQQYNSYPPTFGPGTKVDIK
Ans: 15

Q: Query: t1/2; subject: H4H2346S (antibody, human IgG4, V domains shown, human IgG4 Fc (H4H)) VH: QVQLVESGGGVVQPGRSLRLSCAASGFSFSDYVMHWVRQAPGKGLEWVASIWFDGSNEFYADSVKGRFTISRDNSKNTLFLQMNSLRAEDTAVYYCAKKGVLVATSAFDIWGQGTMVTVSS VL: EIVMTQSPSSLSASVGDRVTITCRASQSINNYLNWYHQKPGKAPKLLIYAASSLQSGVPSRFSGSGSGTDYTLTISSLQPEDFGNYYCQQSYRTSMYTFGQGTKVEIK
Ans: 145

Q: Query: t1/2; subject: H4H2364S (antibody, human IgG4, V domains shown, human IgG4 Fc (H4H)) VH: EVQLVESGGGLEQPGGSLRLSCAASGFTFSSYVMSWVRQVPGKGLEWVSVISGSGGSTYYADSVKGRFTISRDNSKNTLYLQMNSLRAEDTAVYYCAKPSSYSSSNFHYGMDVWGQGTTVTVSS VL: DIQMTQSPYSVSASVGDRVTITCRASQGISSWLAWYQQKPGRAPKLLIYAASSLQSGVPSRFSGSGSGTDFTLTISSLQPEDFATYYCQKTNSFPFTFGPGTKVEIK
Ans: 315
